target: MAO-B (Homo sapiens, UniProt P27338); assay: In vitro MAO-B inhibition assay (fluorometric); type: biochemical; conditions: 10^–4 M
Sequence (P27338 whole entry): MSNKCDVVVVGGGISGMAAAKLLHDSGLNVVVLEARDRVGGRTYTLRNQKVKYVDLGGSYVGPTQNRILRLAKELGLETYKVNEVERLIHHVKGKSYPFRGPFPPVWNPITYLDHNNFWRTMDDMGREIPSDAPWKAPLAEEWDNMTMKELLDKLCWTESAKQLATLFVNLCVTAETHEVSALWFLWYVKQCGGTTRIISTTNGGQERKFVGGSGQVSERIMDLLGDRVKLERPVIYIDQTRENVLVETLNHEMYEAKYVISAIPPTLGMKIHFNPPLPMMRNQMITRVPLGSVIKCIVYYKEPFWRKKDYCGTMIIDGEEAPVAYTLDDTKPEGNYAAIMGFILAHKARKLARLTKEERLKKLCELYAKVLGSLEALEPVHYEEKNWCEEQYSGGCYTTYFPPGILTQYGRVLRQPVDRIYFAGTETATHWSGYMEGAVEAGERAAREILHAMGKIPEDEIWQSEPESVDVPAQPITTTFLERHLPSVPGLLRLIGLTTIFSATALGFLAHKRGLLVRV
Each item that follows carries a reported inhibition at 100 µM.
Return type: number; implicit unit %.

See these solved cases before continuing.
COc1cc2c(cc1OC)C(=O)/C(=C/c1ccc(NC(=O)CN(C)CCN(C)C)cc1)C2 45.2
COc1ccc2c(c1)C/C(=C\c1ccc(NC(=O)CN3CCN(CCCO)CC3)cc1)C2=O 43.2
CCCN(C)CC(=O)Nc1ccc(/C=C2\Cc3cc(OC)ccc3C2=O)cc1 89.3
C#CCN(C)CC(=O)Nc1ccc(/C=C2\Cc3cc(OC)ccc3C2=O)cc1 88.7
CCN(CC)CCN(CC)CC(=O)Nc1ccc(/C=C2\Cc3cc(OC)ccc3C2=O)cc1 88.8
COCCN1CCN(CC(=O)Nc2ccc(/C=C3\Cc4cc(OC)ccc4C3=O)cc2)CC1 44.6

Reported inhibition at 100 µM ( `COc1ccc2c(c1)C(=O)/C(=C/c1ccc(NC(=O)CN(C)CCCN(C)C)cc1)C2` ) = 88.6

Reported inhibition at 100 µM ( `COCCN1CCN(CC(=O)Nc2ccc(/C=C3\Cc4ccc(OC)cc4C3=O)cc2)CC1` ) = 39.3

Reported inhibition at 100 µM ( `COc1ccc2c(c1)C/C(=C\c1ccc(NC(=O)CN(C)CCN(C)C)cc1)C2=O` ) = 47.3

====

target: BChE (Homo sapiens)
Sequence (P06276 29-602): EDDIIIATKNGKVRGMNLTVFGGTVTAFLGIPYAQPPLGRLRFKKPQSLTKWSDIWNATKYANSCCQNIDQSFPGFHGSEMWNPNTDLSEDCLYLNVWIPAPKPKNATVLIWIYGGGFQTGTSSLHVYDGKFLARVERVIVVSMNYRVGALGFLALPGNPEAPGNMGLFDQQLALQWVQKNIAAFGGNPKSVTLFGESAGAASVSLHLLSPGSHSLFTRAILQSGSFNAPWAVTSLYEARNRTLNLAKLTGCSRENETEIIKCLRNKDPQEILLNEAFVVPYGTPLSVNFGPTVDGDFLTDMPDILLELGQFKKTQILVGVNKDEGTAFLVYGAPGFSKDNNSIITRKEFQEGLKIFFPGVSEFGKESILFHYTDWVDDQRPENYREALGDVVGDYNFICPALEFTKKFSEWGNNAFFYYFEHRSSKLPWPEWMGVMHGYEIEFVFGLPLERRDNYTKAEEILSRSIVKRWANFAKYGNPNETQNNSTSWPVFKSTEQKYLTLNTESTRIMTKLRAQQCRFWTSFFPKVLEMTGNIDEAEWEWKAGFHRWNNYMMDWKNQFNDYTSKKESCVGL
quantity: IC50 (nM)
Return type: number; implicit unit nM.

See these solved cases before continuing.
COc1cc2c(cc1OC)C(=O)/C(=C/c1ccc(NC(=O)CN(C)CCCN(C)C)cc1)C2 75
COc1ccc2c(c1)C/C(=C\c1ccc(NC(=O)CN(C)CCN(C)C)cc1)C2=O 132
COc1ccc2c(c1)C/C(=C\c1ccc(NC(=O)CN(C)CCCN(C)C)cc1)C2=O 83.9
COc1ccc2c(c1)C(=O)/C(=C/c1ccc(NC(=O)CN(C)CCN(C)C)cc1)C2 151

Assay BChE (Homo sapiens), sample `COc1ccc2c(c1)C(=O)/C(=C/c1ccc(NC(=O)CN(C)CCCN(C)C)cc1)C2` , IC50 read: 78.2

====

target: AChE (Homo sapiens); assay: biochemical; conditions: 10^–8 M
Sequence (P22303 32-614): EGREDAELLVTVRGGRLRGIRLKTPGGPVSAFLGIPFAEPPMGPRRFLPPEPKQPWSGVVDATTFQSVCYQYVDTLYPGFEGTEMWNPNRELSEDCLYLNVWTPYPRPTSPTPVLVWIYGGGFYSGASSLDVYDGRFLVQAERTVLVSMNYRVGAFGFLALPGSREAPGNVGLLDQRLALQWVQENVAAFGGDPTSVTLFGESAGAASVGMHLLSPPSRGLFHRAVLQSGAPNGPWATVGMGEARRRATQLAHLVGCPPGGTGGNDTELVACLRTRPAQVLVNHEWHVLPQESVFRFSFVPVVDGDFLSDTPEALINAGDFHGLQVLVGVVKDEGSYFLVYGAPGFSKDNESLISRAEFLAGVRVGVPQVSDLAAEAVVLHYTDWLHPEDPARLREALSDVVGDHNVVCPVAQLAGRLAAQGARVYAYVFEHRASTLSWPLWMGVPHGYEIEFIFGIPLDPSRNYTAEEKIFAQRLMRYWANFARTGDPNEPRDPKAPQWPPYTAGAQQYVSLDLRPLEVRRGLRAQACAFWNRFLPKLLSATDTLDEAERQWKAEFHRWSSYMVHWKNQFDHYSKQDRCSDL
quantity: inhibition at 0.01 µM (%)
Return type: number; implicit unit %.

See these solved cases before continuing.
compound	target.under.test	unit.label	reading
COc1ccc2c(c1)C/C(=C\c1ccc(NC(=O)CN(C)CCN(C)C)cc1)C2=O [D34]	AChE (Homo sapiens)	%	32.5
COc1cc2c(cc1OC)C(=O)/C(=C/c1ccc(NC(=O)CN(C)CCCN(C)C)cc1)C2 [D39]	AChE (Homo sapiens)	%	40.2
COc1ccc2c(c1)C/C(=C\c1ccc(NC(=O)CN(C)CCCN(C)C)cc1)C2=O [D37]	AChE (Homo sapiens)	%	39.5

Proceed to the following item.
Reported inhibition at 0.01 µM ( COc1cc2c(cc1OC)C(=O)/C(=C/c1ccc(NC(=O)CN3CCN(CCCN(C)C)CC3)cc1)C2 [D27] ) = 31.6

====

molecular target: MAO-B (Homo sapiens, UniProt P27338); assay: In vitro MAO-B inhibition assay (fluorometric); format: biochemical; conditions: 10^–9 M
Each item that follows carries a reported inhibition at 0.001 µM.
Return type: number; implicit unit %.

See these solved cases before continuing.
COc1cc2c(cc1OC)C(=O)/C(=C/c1ccc(NC(=O)CN(C)CCCN(C)C)cc1)C2 25.6
CCCN(C)CC(=O)Nc1ccc(/C=C2\Cc3ccc(OC)cc3C2=O)cc1 20.4
CCCN(C)CC(=O)Nc1ccc(/C=C2\Cc3cc(OC)c(OC)cc3C2=O)cc1 19.8
CCN(CC)CCN(CC)CC(=O)Nc1ccc(/C=C2\Cc3cc(OC)ccc3C2=O)cc1 19.9
C#CCN(C)CC(=O)Nc1ccc(/C=C2\Cc3cc(OC)ccc3C2=O)cc1 18.8
COc1ccc2c(c1)C/C(=C\c1ccc(NC(=O)CN(C)CCCN(C)C)cc1)C2=O 18.2
COc1ccc2c(c1)C(=O)/C(=C/c1ccc(NC(=O)CN(C)CCCN(C)C)cc1)C2 20.7
C#CCN(C)CC(=O)Nc1ccc(/C=C2\Cc3ccc(OC)cc3C2=O)cc1 21.5

Reported inhibition at 0.001 µM ( `CCN(CC)CCN(CC)CC(=O)Nc1ccc(/C=C2\Cc3ccc(OC)cc3C2=O)cc1` ) = 21.5

Reported inhibition at 0.001 µM ( `CCCN(C)CC(=O)Nc1ccc(/C=C2\Cc3cc(OC)ccc3C2=O)cc1` ) = 18.8
